# METHOD_NOTES: PAX8 transcriptional activity inhibition in RMG-I – RMG-I cells, luciferase, single concentration, primary screen (AID 652154);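 note: luciferase light reporting Pax8 driven TPO promoter activity; plate controls were median of neutral control wells for no effect and mitoxantrone controls for full effect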
# CONDITION_DETAILS: RMG-I TPO-luciferase reporter, SteadyGlo, 24 h; at 12.6 µM; active compounds read high
In all, about 360,000 compounds went through this assay and about 4,200 (1.2%) were called active. Many of the other results were omitted from the sample, so actives are more common in it than they were.
Parameter: inhibition. Scope: all listed entries.
MEASUREMENT_TYPE: inhibition (%)

INSERT INTO results (molecule, unit_name, result) VALUES
  ('COc1ccccc1/C=C1\SC(=O)N(CCC(=O)N(C)C2CCS(=O)(=O)C2)C1=O (centres undefined)', '%', -11.6),
  ('COc1ccc(-c2ccc(C3[C@@H]4CN(S(=O)(=O)c5cn(C)cn5)C[C@H]3N4)cc2)cc1 (some centres undefined)', '%', -15.4),
  ('O=C(c1ccccc1)N1C[C@@H]2[C@H](c3ccccc31)[C@@H](CO)N2Cc1cc(F)ccc1F', '%', 28),
  ('COc1cc2c(cc1OC)CN(C(=O)c1cc(S(=O)(=O)N3CCCCC3)ccc1Cl)CC2', '%', -3.73),
  ('CNC(=O)C1CCN(S(=O)(=O)c2c(C)noc2/C=C/c2cccc(C)c2)CC1', '%', -0.657),
  ('Cc1ccc(OCC(=O)Nc2ccc(N3CCN(C(=O)c4ccco4)CC3)cc2)c(C)c1', '%', 7.91),
  ('CN(C(=O)CCN1C(=O)/C(=C/c2ccccc2F)SC1=S)C1CCS(=O)(=O)C1 (centres undefined)', '%', 74.1),
  ('COCC(=O)N(C)C[C@H]1[C@@H](c2ccc(-c3cccnc3)cc2)[C@H](CO)N1C(C)=O', '%', 0.314),
  ('CCOC(=O)Nc1ccc2c(c1)N(C(=O)CCCl)c1ccccc1[S@]2=O', '%', 120);
